src = patent US5840684A

Tested on: vancomycin-resistant enterococci
measurement description: broth micro-dilution, mean geometric MIC
Type: cell-based, Enterococcus faecium and Enterococcus faecalis
condition context: enterococci, 24-hour incubation
measurement label: mean geometric MIC, Vancomycin Resistant Strains
Mention the unit after the number when you answer.

molecule	measured value
CCCc1ccc(-c2ccc(CNC3(C)CC(OC4C(Oc5c6cc7cc5Oc5ccc(cc5Cl)C(OC5CC(C)(N)C(O)C(C)O5)C5NC(=O)C(NC(=O)C7NC(=O)C(CC(N)=O)NC(=O)C(NC(=O)C(CC(C)C)NC)C(O)c7ccc(c(Cl)c7)O6)c6ccc(O)c(c6)-c6c(O)cc(O)cc6C(C(=O)O)NC5=O)OC(CO)C(O)C4O)OC(C)C3O)cc2)cc1 (stereo not drawn)	0.59 µg/mL
CNC(CC(C)C)C(=O)NC1C(=O)NC(CC(N)=O)C(=O)NC2C(=O)NC3C(=O)NC(C(=O)NC(C(=O)O)c4cc(O)cc(O)c4-c4cc3ccc4O)C(OC3CC(C)(N)C(O)C(C)O3)c3ccc(c(Cl)c3)Oc3cc2cc(c3OC2OC(CO)C(O)C(O)C2OC2CC(C)(NCc3ccc(N=Nc4ccccc4)cc3)C(O)C(C)O2)Oc2ccc(cc2Cl)C1O (stereo not drawn)	0.84 µg/mL

Switching to the query record.
Sample CNC(CC(C)C)C(=O)NC1C(=O)NC(CC(N)=O)C(=O)NC2C(=O)NC3C(=O)NC(C(=O)NC(C(=O)O)c4cc(O)cc(O)c4-c4cc3ccc4O)C(OC3CC(C)(N)C(O)C(C)O3)c3ccc(c(Cl)c3)Oc3cc2cc(c3OC2OC(CO)C(O)C(O)C2OC2CC(C)(NCc3cccc(Sc4ccc(C(C)(C)C)cc4)c3)C(O)C(C)O2)Oc2ccc(cc2Cl)C1O (stereo not drawn) , system: vancomycin-resistant enterococci. Its mean geometric MIC, Vancomycin Resistant Strains is 1.0 µg/mL

---

System: vancomycin-resistant enterococci
measurement description: broth micro-dilution, mean geometric MIC
Assay type: cell-based, Enterococcus faecium and Enterococcus faecalis
condition context: enterococci, 24-hour incubation
measurement label: mean geometric MIC, Vancomycin Resistant Strains (µg/mL)
Number in µg/mL, nothing else.

Record excerpt, results attached:
molecule	tested system	measured value
CNC(CC(C)C)C(=O)NC1C(=O)NC(CC(N)=O)C(=O)NC2C(=O)NC3C(=O)NC(C(=O)NC(C(=O)O)c4cc(O)cc(O)c4-c4cc3ccc4O)C(OC3CC(C)(N)C(O)C(C)O3)c3ccc(c(Cl)c3)Oc3cc2cc(c3OC2OC(CO)C(O)C(O)C2OC2CC(C)(NCc3ccc(S(=O)(=O)N4CCCC4)cc3)C(O)C(C)O2)Oc2ccc(cc2Cl)C1O (stereo not drawn)	vancomycin-resistant enterococci	19
CNC(CC(C)C)C(=O)NC1C(=O)NC(CC(N)=O)C(=O)NC2C(=O)NC3C(=O)NC(C(=O)NC(C(=O)O)c4cc(O)cc(O)c4-c4cc3ccc4O)C(OC3CC(C)(N)C(O)C(C)O3)c3ccc(c(Cl)c3)Oc3cc2cc(c3OC2OC(CO)C(O)C(O)C2OC2CC(C)(NCc3ccc(-c4ccccc4[N+](=O)[O-])c([N+](=O)[O-])c3)C(O)C(C)O2)Oc2ccc(cc2Cl)C1O (stereo not drawn)	vancomycin-resistant enterococci	1.0

// mean geometric MIC, Vancomycin Resistant Strains lookup, molecule = CNC(CC(C)C)C(=O)NC1C(=O)NC(CC(N)=O)C(=O)NC2C(=O)NC3C(=O)NC(C(=O)NC(C(=O)O)c4cc(O)cc(O)c4-c4cc3ccc4O)C(OC3CC(C)(N)C(O)C(C)O3)c3ccc(c(Cl)c3)Oc3cc2cc(c3OC2OC(CO)C(O)C(O)C2OC2CC(C)(NCc3cc(C)cc(C)c3)C(O)C(C)O2)Oc2ccc(cc2Cl)C1O (stereo not drawn) , result: 11

---

Catalogue of MIC readings, one per entry.
System: Lactobacillus confusus
measurement description: agar dilution MIC, lactic acid bacteria
Type: cell-based
condition context: Lactobacillus confusus, brain-heart infusion agar
Number in µg/mL, nothing else.

compound	measured value
CNC(CC(C)C)C(=O)NC1C(=O)NC(CC(N)=O)C(=O)NC2C(=O)NC3C(=O)NC(C(=O)NC(C(=O)O)c4cc(O)cc(O)c4-c4cc3ccc4O)C(OC3CC(C)(N)C(O)C(C)O3)c3ccc(c(Cl)c3)Oc3cc2cc(c3OC2OC(CO)C(O)C(O)C2OC2CC(C)(NCc3cccc4c3oc3ccccc34)C(O)C(C)O2)Oc2ccc(cc2Cl)C1O (centres unmarked)	32

Switching to the query record.
Sample CNC(CC(C)C)C(=O)NC1C(=O)NC(CC(N)=O)C(=O)NC2C(=O)NC3C(=O)NC(C(=O)NC(C(=O)O)c4cc(O)cc(O)c4-c4cc3ccc4O)C(OC3CC(C)(N)C(O)C(C)O3)c3ccc(c(Cl)c3)Oc3cc2cc(c3OC2OC(CO)C(O)C(O)C2OC2CC(C)(NCc3ccc(-c4ccccc4)cc3)C(O)C(C)O2)Oc2ccc(cc2Cl)C1O (centres unmarked) [Compound 2, p-phenylbenzyl·A82846B] , system: Lactobacillus confusus. Its MIC is 16

---

Test system: Staphylococcus aureus S13E
Assay type: cell-based
measurement label: MIC (µg/mL)
Number in µg/mL, nothing else.

Record excerpt, results attached:
molecule	measured value
CNC(CC(C)C)C(=O)NC1C(=O)NC(CC(N)=O)C(=O)NC2C(=O)NC3C(=O)NC(C(=O)NC(C(=O)O)c4cc(O)cc(O)c4-c4cc3ccc4O)C(OC3CC(C)(N)C(O)C(C)O3)c3ccc(c(Cl)c3)Oc3cc2cc(c3OC2OC(CO)C(O)C(O)C2OC2CC(C)(NCc3c4ccccc4c(Cl)c4ccccc34)C(O)C(C)O2)Oc2ccc(cc2Cl)C1O (stereo not drawn)	1
CNC(CC(C)C)C(=O)NC1C(=O)NC(CC(N)=O)C(=O)NC2C(=O)NC3C(=O)NC(C(=O)NC(C(=O)O)c4cc(O)cc(O)c4-c4cc3ccc4O)C(OC3CC(C)(N)C(O)C(C)O3)c3ccc(c(Cl)c3)Oc3cc2cc(c3OC2OC(CO)C(O)C(O)C2OC2CC(C)(NCCCCCCCCCCCCc3ccccc3)C(O)C(C)O2)Oc2ccc(cc2Cl)C1O (stereo not drawn)	8
CNC(CC(C)C)C(=O)NC1C(=O)NC(CC(N)=O)C(=O)NC2C(=O)NC3C(=O)NC(C(=O)NC(C(=O)O)c4cc(O)cc(O)c4-c4cc3ccc4O)C(OC3CC(C)(N)C(O)C(C)O3)c3ccc(c(Cl)c3)Oc3cc2cc(c3OC2OC(CO)C(O)C(O)C2OC2CC(C)(NCc3ccc(OC)c4ccccc34)C(O)C(C)O2)Oc2ccc(cc2Cl)C1O (stereo not drawn)	0.5

Switching to the query record.
// MIC lookup, molecule = CNC(CC(C)C)C(=O)NC1C(=O)NC(CC(N)=O)C(=O)NC2C(=O)NC3C(=O)NC(C(=O)NC(C(=O)O)c4cc(O)cc(O)c4-c4cc3ccc4O)C(OC3CC(C)(N)C(O)C(C)O3)c3ccc(c(Cl)c3)Oc3cc2cc(c3OC2OC(CO)C(O)C(O)C2OC2CC(C)(NCc3c4c(cc5ccccc35)CCCC4)C(O)C(C)O2)Oc2ccc(cc2Cl)C1O (stereo not drawn) , result: 1

---

Tested on: Streptococcus pyogenes C203
measurement description: broth micro-dilution MIC
Format: cell-based
measurement label: MIC

compound	measurement label	measured value
CNC(CC(C)C)C(=O)NC1C(=O)NC(CC(N)=O)C(=O)NC2C(=O)NC3C(=O)NC(C(=O)NC(C(=O)O)c4cc(O)cc(O)c4-c4cc3ccc4O)C(OC3CC(C)(N)C(O)C(C)O3)c3ccc(c(Cl)c3)Oc3cc2cc(c3OC2OC(CO)C(O)C(O)C2OC2CC(C)(NCc3ccc(OCCC4CCCCC4)cc3)C(O)C(C)O2)Oc2ccc(cc2Cl)C1O (stereo not drawn)	MIC	≤ 0.06 µg/mL

Sample CNC(CC(C)C)C(=O)NC1C(=O)NC(CC(N)=O)C(=O)NC2C(=O)NC3C(=O)NC(C(=O)NC(C(=O)O)c4cc(O)cc(O)c4-c4cc3ccc4O)C(OC3CC(C)(N)C(O)C(C)O3)c3ccc(c(Cl)c3)Oc3cc2cc(c3OC2OC(CO)C(O)C(O)C2OC2CC(C)(NCc3ccc([N+](=O)[O-])cc3)C(O)C(C)O2)Oc2ccc(cc2Cl)C1O (stereo not drawn) , system: Streptococcus pyogenes C203. Its MIC is ≤ 0.06 µg/mL

Sample CNC(CC(C)C)C(=O)NC1C(=O)NC(CC(N)=O)C(=O)NC2C(=O)NC3C(=O)NC(C(=O)NC(C(=O)O)c4cc(O)cc(O)c4-c4cc3ccc4O)C(OC3CC(C)(N)C(O)C(C)O3)c3ccc(c(Cl)c3)Oc3cc2cc(c3OC2OC(CO)C(O)C(O)C2OC2CC(C)(NCc3ccc(N4CCCCC4C)cc3)C(O)C(C)O2)Oc2ccc(cc2Cl)C1O (stereo not drawn) , system: Streptococcus pyogenes C203. Its MIC is ≤ 0.06 µg/mL

---

Catalogue of MIC readings, one per entry.
Tested on: Staphylococcus aureus SA1199B
Type: cell-based

compound	MIC
CNC(CC(C)C)C(=O)NC1C(=O)NC(CC(N)=O)C(=O)NC2C(=O)NC3C(=O)NC(C(=O)NC(C(=O)O)c4cc(O)cc(O)c4-c4cc3ccc4O)C(OC3CC(C)(N)C(O)C(C)O3)c3ccc(c(Cl)c3)Oc3cc2cc(c3OC2OC(CO)C(O)C(O)C2OC2CC(C)(NCc3cc(OCc4ccccc4)ccc3OC)C(O)C(C)O2)Oc2ccc(cc2Cl)C1O (stereo not drawn)	1 µg/mL
CNC(CC(C)C)C(=O)NC1C(=O)NC(CC(N)=O)C(=O)NC2C(=O)NC3C(=O)NC(C(=O)NC(C(=O)O)c4cc(O)cc(O)c4-c4cc3ccc4O)C(OC3CC(C)(NCc4ccc([N+](=O)[O-])cc4)C(O)C(C)O3)c3ccc(c(Cl)c3)Oc3cc2cc(c3OC2OC(CO)C(O)C(O)C2OC2CC(C)(NCc3ccc([N+](=O)[O-])cc3)C(O)C(C)O2)Oc2ccc(cc2Cl)C1O (stereo not drawn)	≤ 0.06 µg/mL

// MIC lookup, compound = CNC(CC(C)C)C(=O)NC1C(=O)NC(CC(N)=O)C(=O)NC2C(=O)NC3C(=O)NC(C(=O)NC(C(=O)O)c4cc(O)cc(O)c4-c4cc3ccc4O)C(OC3CC(C)(N)C(O)C(C)O3)c3ccc(c(Cl)c3)Oc3cc2cc(c3OC2OC(CO)C(O)C(O)C2OC2CC(C)(NCc3cccc4c3oc3ccccc34)C(O)C(C)O2)Oc2ccc(cc2Cl)C1O (stereo not drawn) , result: ≤ 0.06 µg/mL
